Test system: wheat germ agglutinin (Triticum aestivum), Alexa647-labelled
test_name: Alexa647-WGA lectin binding to printed small molecules – biochemical, small-molecule microarray, 635/667 nm fluorescence, artefact control for SMM control-protein annotation, profiling panel (AID 1140);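 note: score merges 667 nm feature emission with signal to noise over triplicate slides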
setup_conditions: WGA-A647 binding, 635 nm fluorescence, higher = more signal
measurement_kind: composite z-score
# respond with the number and nothing more

Here's what some known entries look like.
Cc1ccc(S[C@]2(C(=O)NCC(F)(F)F)CC(=O)N(C3Cc4ccccc4C3)[C@@H]2c2ccc(CO)cc2I)cc1 | 0.0728
CCOC(=O)C1=C[C@@H](C(C)(C)C)N(S(=O)(=O)c2ccc(C)cc2)[C@H]1c1ccc(Cl)c(Cl)c1 | 0.945
CC(C)C(O)C1C=CC2C(=O)N(C)C(=O)C2N1N1CCCCC1 (configuration not stated) | 0.763
CCCCN1CC=CC23O[C@@H]4/C=C\CCCOC(=O)C4[C@H]2C(=O)N(C(C)CO)[C@@H]3C1=O (some centres not stated) | -0.362
C=C(C(=O)CC[C@@H](OC(=O)c1cccnc1)c1ccc(OCCO)cc1)C(C)C | 0.752

Enquiry: Report composite z-score for O=C1O[C@@H](c2ccccc2)[C@@H](c2ccccc2)N2[C@@H](c3ccccc3OCCO)[C@]3(C(=O)Nc4ccc(C#CC5(O)CCCCCC5)cc43)[C@@H](C(=O)NC[C@H](O)c3ccccc3)[C@H]12 please.
Return: 1.21

Enquiry: Report composite z-score for CCN(CC)c1ccc(N2CC=CC34O[C@@H]5/C=C\CCC(C)OC(=O)C5[C@H]3C(=O)N(CCCCCCO)[C@@H]4C2=O)cc1 (some centres not stated) please.
Return: 0.524

###

system_under_test: Torsin-1A (Homo sapiens)
test_name: torsin A mutant lysate binding on microarrays – cell lysate, small-molecule microarray, COS7 lysate, 635/667 nm fluorescence, primary screen (AID 1150);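 note: score pools 667 nm emission and signal to noise measuring lysate protein binding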
setup_conditions: COS7 hTOR1A mutant lysate, 635 nm fluorescence, higher = more signal
Documented composite z-score across a set of compounds

Here's what some known entries look like.
COCCCNC(=O)[C@@]1(Cc2ccccc2I)c2ccccc2C(=O)N(Cc2ccccc2)[C@H]1c1ccc(CO)cc1 | -0.332
CC(C)(C)OC(=O)CC[C@@]1(C(N)=O)N=C(c2ccc(OCCCO)cc2)O[C@@H]1c1ccccc1N=[N+]=[N-] | 1.31
COCCOC(=O)N1C(=O)[C@@]2(c3cc(C#CCCO)ccc31)[C@H](c1ccc(O)cc1)N1[C@H](c3ccccc3)[C@H](c3ccccc3)OC(=O)[C@H]1[C@@H]2C(=O)N1CCCCCCC1 | 0.667
[N-]=[N+]=NCc1ccccc1C[C@@]1(C(=O)NCc2ccccc2)N=C(c2ccc(OCCCO)cc2)O[C@@H]1c1ccccc1CN=[N+]=[N-] | 0.367
COC(=O)[C@@]1(Cc2ccccc2)[C@H]2c3cc(C(=O)N(C)C)n(Cc4cc(F)c(F)c(F)c4)c3C[C@H]2CN1C(=O)c1ccccc1 | 0.12

Enquiry: Report composite z-score for CC1CC/C=C\[C@H]2OC34C=CCN(c5ccc6ccccc6c5)C(=O)[C@H]3N(CCCCCO)C(=O)[C@@H]4C2C(=O)O1 (some centres not stated) please.
Return: -1.19

Enquiry: Report composite z-score for CC1CC/C=C\[C@H]2OC34C=CCN(Cn5nnc6ccccc65)C(=O)[C@H]3N(CCCO)C(=O)[C@@H]4C2C(=O)O1 (some centres not stated) please.
Return: -1.33

###

test_name: Pseudomonas biofilm growth suppression – PAO1 strain, BacTiter-Glo luminescence, LB-PBS, primary screen (AID 1144)
setup_conditions: P. aeruginosa PAO1 biofilm, 12 h, higher = more signal
Documented z-score across a set of compounds
# respond with the number and nothing more

Here's what some known entries look like.
CC(=O)NCCCC[C@@H]1NC(=O)[C@@H]2C[C@H](C(=O)NCCCCCC[N+](C)(C)C)[C@H](c3cccc(OCCO)c3)N2C1=O | -0.445
C=CCC(OC(C)=O)[C@@H]1[C@@H](N(Cc2ccc(-c3ccccc3)cc2)C(=O)c2ccc(C)cc2)c2cc(OCCCO)ccc2N1C(=O)Cc1ccc(OC)cc1 (some centres not stated) | 0.307
C=C(CCCC)/C(=C/C[C@H](OC(C)=O)c1ccc(CO)o1)c1cc(C(=O)OC)ccc1OC | -0.193
COCCn1c(C(=O)N(C)C)cc2c1C[C@H]1CN(C(=O)c3ccccc3)[C@@](Cc3ccc(F)cc3)(C(=O)OC)[C@@H]21 | -0.191
O=C1C[C@@](C(=O)O)(c2ccc([N+](=O)[O-])cc2)[C@@H](c2ccc(CO)cc2I)N1C1CCCCC1 | -2.27

Enquiry: Report z-score for C=C(CCCC)/C(=C/C[C@@H](OC(=O)c1ccncc1)c1ccc(CO)o1)c1cc(C(=O)OC)ccc1OC please.
Return: 0.363

Enquiry: Report z-score for COc1ccc([Si](C)(C)[C@H]2[C@H](CC(=O)N(CCO)Cc3ccccc3)O[C@@]3(C(=O)N(Cc4cccc(N5C(=O)c6cccc7cccc5c67)c4)c4ccccc43)[C@@H]2C)cc1 please.
Return: -0.188

###

system_under_test: Neurogenic locus notch homolog protein 2 (Homo sapiens) (UniProt Q04721)
Sequence (Q04721 whole entry, looked up): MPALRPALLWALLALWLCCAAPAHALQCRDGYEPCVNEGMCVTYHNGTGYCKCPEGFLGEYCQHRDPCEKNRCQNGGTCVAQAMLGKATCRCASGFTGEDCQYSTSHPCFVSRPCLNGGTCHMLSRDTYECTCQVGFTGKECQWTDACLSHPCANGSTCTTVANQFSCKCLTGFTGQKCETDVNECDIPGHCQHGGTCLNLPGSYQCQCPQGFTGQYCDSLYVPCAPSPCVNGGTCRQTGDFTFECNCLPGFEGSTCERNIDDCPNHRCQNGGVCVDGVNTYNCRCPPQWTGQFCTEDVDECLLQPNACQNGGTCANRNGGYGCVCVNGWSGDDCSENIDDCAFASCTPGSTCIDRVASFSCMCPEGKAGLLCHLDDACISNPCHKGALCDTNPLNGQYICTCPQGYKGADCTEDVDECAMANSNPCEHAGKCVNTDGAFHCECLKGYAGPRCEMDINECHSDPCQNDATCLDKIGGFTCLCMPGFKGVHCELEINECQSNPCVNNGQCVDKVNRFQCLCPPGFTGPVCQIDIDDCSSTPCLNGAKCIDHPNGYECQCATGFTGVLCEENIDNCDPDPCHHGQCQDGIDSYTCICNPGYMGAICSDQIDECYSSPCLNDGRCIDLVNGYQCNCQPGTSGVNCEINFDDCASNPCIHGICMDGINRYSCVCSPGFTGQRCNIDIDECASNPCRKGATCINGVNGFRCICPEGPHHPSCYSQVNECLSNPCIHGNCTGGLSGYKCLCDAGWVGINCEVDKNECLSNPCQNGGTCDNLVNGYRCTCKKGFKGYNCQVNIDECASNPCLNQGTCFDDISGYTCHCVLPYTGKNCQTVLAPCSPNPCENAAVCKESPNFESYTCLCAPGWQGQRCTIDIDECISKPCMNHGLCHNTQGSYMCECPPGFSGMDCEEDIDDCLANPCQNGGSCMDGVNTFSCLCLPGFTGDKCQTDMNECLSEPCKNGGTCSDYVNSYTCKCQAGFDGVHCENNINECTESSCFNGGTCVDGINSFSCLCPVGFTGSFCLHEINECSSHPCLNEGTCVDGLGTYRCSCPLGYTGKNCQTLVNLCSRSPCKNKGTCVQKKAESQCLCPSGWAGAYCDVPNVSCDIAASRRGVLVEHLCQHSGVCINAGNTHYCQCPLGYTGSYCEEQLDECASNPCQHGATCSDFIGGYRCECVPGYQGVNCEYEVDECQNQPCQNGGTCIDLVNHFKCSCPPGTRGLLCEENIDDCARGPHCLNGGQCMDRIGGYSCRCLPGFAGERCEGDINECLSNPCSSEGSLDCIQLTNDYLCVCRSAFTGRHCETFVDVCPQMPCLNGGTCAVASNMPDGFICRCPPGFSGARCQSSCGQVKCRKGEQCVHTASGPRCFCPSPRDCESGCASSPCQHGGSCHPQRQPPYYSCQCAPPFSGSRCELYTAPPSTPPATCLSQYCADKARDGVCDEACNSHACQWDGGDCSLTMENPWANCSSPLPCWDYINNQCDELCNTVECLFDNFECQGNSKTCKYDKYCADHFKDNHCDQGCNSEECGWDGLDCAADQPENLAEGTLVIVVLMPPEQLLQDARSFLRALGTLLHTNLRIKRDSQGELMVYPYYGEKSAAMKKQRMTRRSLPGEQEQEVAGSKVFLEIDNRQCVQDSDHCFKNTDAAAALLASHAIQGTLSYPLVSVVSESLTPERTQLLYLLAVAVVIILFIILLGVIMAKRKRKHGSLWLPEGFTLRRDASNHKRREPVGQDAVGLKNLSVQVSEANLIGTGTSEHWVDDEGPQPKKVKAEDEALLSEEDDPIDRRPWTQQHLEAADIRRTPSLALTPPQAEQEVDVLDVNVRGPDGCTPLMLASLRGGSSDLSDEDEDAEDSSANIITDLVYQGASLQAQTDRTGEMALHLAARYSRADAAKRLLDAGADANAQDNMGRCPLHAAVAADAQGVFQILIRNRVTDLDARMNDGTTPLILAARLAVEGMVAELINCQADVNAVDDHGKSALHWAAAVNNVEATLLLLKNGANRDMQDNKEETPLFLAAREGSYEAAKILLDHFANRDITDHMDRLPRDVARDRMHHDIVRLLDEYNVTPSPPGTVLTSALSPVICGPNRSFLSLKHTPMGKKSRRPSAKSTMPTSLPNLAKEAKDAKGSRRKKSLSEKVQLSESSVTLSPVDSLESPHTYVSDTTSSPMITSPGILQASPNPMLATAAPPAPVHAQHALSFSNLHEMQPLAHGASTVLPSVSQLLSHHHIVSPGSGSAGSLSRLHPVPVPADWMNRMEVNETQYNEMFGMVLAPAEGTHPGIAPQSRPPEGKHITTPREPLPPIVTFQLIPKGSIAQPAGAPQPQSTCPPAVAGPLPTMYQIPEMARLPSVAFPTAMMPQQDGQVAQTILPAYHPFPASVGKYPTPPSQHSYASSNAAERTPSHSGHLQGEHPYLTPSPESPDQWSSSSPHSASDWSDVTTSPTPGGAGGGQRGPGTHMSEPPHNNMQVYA
test_name: small molecules binding Notch2 protein – biochemical, small-molecule microarray, 635 nm fluorescence, stem cell growth factors, primary screen (AID 1073)
setup_conditions: higher = more signal
Documented composite z-score across a set of molecules

Here's what some known entries look like.
COC(=O)[C@@]1(Cc2ccc(OC)cc2)[C@H]2c3cc(C(=O)N4CCCC4)n(CCc4ccccn4)c3C[C@H]2CN1C(=O)c1ccccc1 | 1.42
CN1C(=O)C2C=CC(C(O)c3ccc(Br)cc3)N(Nc3ccccc3)C2C1=O (stereo not given) | -0.468
CCOC(=O)C[C@H]1[C@H](OC(=O)c2cc3ccccc3oc2=O)[C@@H](NC(=O)c2ccc3ccccc3c2)c2cc(OCCCO)ccc2N1C(=O)c1ccccc1 | 0.525

Enquiry: Report composite z-score for O=S(=O)(NCCCO)c1ccc(Br)cc1 please.
Return: 0.433

Enquiry: Report composite z-score for CC(=O)N1Cc2ccccc2C[C@@]2(N=C(c3ccc(OCCCO)cc3)O[C@H]2c2ccccc2)C1=O please.
Return: 1.09

###

test_name: calcein-AM signal in unstimulated myeloma cells – cell-based, calcein-AM fluorescence, 48 h, PK04 Diversity Set, profiling panel (AID 1166);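 note: cells grown under basal conditions without added stimulus; test concentration not given here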
setup_conditions: RPMI8226 myeloma viability, higher = more signal
measurement_kind: z-score
# respond with the number and nothing more

Here's what some known entries look like.
CC(C)CNC(=O)[C@@]1(C)c2ccccc2C(=O)N(C(C)C)[C@H]1c1ccc(CO)cc1 | -0.847
CCCC[C@@H]1C[C@H]1[C@@H](NC(=O)c1ccco1)c1ccccc1 | -4.74
C=CCOC(=O)[C@H]1[C@@H]2C(=O)O[C@@H](c3ccccc3)[C@@H](c3ccccc3)N2[C@@H](c2ccc(OCCOC(=O)[C@H]3C[C@H]4C(=O)N[C@@H](CCCC[N+](C)(C)C)C(=O)N4[C@H]3c3ccc(O)cc3)cc2)[C@]12C(=O)Nc1ccccc12 | 0.337
CCCCC(=C=CC[C@H](O)c1ccccc1OCCO)C[C@H](O)c1cc(Cl)cc(Cl)c1O | -2.59
COc1c(C)cc(-c2cc3c(c(-c4ccccc4)n2)[Si](C(C)C)(C(C)C)O[C@H]3c2ccccc2)cc1C | -1.98
CCOC(=O)C[C@H]1[C@H](OC(=O)c2cc3ccccc3oc2=O)[C@@H](NC(=O)c2ccc3ccccc3c2)c2cc(OCCCO)ccc2N1C(=O)c1ccccc1 | -0.608
CCOC1=C2C(c3ccc(C)cc3)N(S(=O)(=O)c3ccc(C)cc3)CC2n2c(=O)n(-c3ccccc3)c(=O)n2C1 (stereo not drawn) | -0.546

Enquiry: Report z-score for CN(C)CCCC[C@@H]1NC(=O)[C@@H]2C[C@H](C(=O)NCCCCCCN)[C@H](c3ccc(O)cc3)N2C1=O please.
Return: 0.483

###

Test system: Human papillomavirus type 1a E7 protein (residues 1-88)
test_name: HPV1a E7 small-molecule binders, primary screen, biochemical, small-molecule microarray, residues 1-88, 635 nm (AID 1129)
setup_conditions: small-molecule microarray binding, fluorescence 635 nm; higher = more signal
Documented composite z-score across a set of compounds
# respond with the number and nothing more

CC(C)N1C(=O)c2ccccc2[C@](C)(C(=O)NC2CC2)[C@@H]1c1ccc(CO)cc1 | 0.875
C=CCN1Cc2ccccc2C[C@]2(N=C(c3ccc(OCCCO)cc3)O[C@@H]2c2ccccc2)C1=O | 1.12
C=CCOC(=O)[C@@H]1[C@H]2C(=O)O[C@H](c3ccccc3)[C@H](c3ccccc3)N2[C@H](c2ccc(OCCOC(=O)[C@H]3C[C@H]4C(=O)N[C@@H](Cc5ccccc5)C(=O)N4[C@H]3c3ccc(O)cc3)cc2)[C@@]12C(=O)Nc1ccc(I)cc12 | 1.19
CCCNC(=O)[C@@]1(C)c2ccccc2C(=O)N(C(C)C)[C@H]1c1ccc(CO)cc1 | -0.54
C=CCOC(=O)[C@H]1[C@@H]2C(=O)O[C@@H](c3ccccc3)[C@@H](c3ccccc3)N2[C@@H](c2ccc(OCCOC(=O)[C@@H]3C[C@@H]4C(=O)NCC(=O)N4[C@@H]3c3ccc(O)cc3)cc2)[C@]12C(=O)Nc1ccc(I)cc12 | 1.22
C=CC[C@@]1(C(=O)OC)N=C(c2ccc(OCCCO)cc2)O[C@@H]1c1ccccc1CN=[N+]=[N-] | 0.996
[N-]=[N+]=NCc1ccccc1[C@H]1OC(c2ccc(OCCCO)cc2)=N[C@@]1(Cc1ccccc1)C(=O)NCC(O)CO (some centres undefined) | 1.25
O=C1C2C=CC(C(O)c3ccc(Br)cc3)N(n3cnnc3)C2C(=O)N1Cc1ccccc1 (centres undefined) | 1.16
O=c1cccc(-c2ccc3ccccc3c2)o1 | -0.788
[N-]=[N+]=Nc1ccccc1[C@@H]1OC(c2ccc(OCCCO)cc2)=N[C@]1(CCS(=O)(=O)c1ccccc1)C(=O)O | 1.22

Enquiry: Report composite z-score for [N-]=[N+]=NCc1ccccc1C[C@]1(C(=O)NCC(O)CO)COC(c2ccc(OCCCO)cc2)=N1 (some centres undefined) please.
Return: 1.2

Enquiry: Report composite z-score for CO[C@H]1O[C@H](CO)[C@@H](OC(=O)Nc2ccc3c(c2)OCO3)[C@H](OC(=O)Nc2ccc3c(c2)OCO3)[C@H]1OC(=O)Nc1ccc2c(c1)OCO2 please.
Return: 1.22

Enquiry: Report composite z-score for COc1ccc([Si](C)(C)[C@H]2[C@H](CC(=O)N3CCC[C@H]3CO)O[C@@]3(C(=O)N(Cc4cccc(N5CCC5=O)c4)c4ccccc43)[C@@H]2C)cc1 please.
Return: 1.24

Enquiry: Report composite z-score for C=CC[C@@]1(C(=O)NCc2ccccc2)N=C(c2ccc(OCCCO)cc2)O[C@@H]1c1ccccc1CN=[N+]=[N-] please.
Return: 1.22

Source: PubChem BioAssay
